Below, each entry is listed alongside its reported GLP1R EC50 human (cAMP activity assay).
- System name: human GLP-1 receptor (GLP1R) (human, UniProt P43220)
- Assay name: cell-based or functional assay
Numbered stars: 1 amine (or outer) side, 2 acyl side, 3 side chain; on linkers, the order of the positions; unused ones are H or OH. Bridge positions count the residues as written; N and C are the ends. Square brackets hold non-standard residues; d marks the D form. Side chains are listed from the residue outwards. Ends that are not written are not given here. * marks the point of attachment. R6me = (R)-2-amino-2-methyloct-7-enoic acid, C=CCCCC[C@@](C)(N[*:1])C(=O)[*:2]; S7 = C[C@@](CCCCCC=[*:3])(N[*:1])C(=O)[*:2]; Gly(pent-4-enyl) = C=CCCC[C@H](N)C(=O)O; γGlu = O=C(O)[C@H](CCC(=O)[*:2])N[*:1]; Palmitoyl = CCCCCCCCCCCCCCCC(=O)*; S5 = C=CCCC[C@](C)(N)C(=O)O; Aib = CC(C)(N)C(=O)O
Answer with the value and then the unit.

Solved cases below.
Binder	Measurement name	Result
HXQGTFTSDXSKYLDEXAAQDFVXWLLDT (as printed: HsQGTFTSDK(γEγEC16)SKYLDE*R6meAAQDFV*S7meWLLDT-NH2; s = D-Serine (position 2); Lys 10 conjugated to C16 fatty acid via γEγE; *R6me (position 17) and *S7me (position 24) cyclized to form a double bond containing ring; C-terminal amide) [peptide of SEQ ID NO: 8 (TP398)]	GLP1R EC50 human (cAMP activity assay)	2.28 nM
H[dS]QGTFTSDK([γGlu-γGlu-Palmitoyl])SKYLDERAA[R6me]DFVQWL[S7]DT-NH2 (staple 20-27) [peptide of SEQ ID NO: 10 (TP399)]	GLP1R EC50 human (cAMP activity assay)	0.45 nM
HXQGTFTSDKSKYLDERAAXDFVXWLLDT (as printed: HsQGTFTSDKSKYLDERAA*S5meDFV*S5meWLLDT-NH2; s = D-Serine (position 2); two *S5me (positions 20 and 24) cyclized to form a double bond containing ring; C-terminal amide) [peptide of SEQ ID NO: 19 (TP 558)]	GLP1R EC50 human (cAMP activity assay)	2.79 nM
HXQGTFTSDXSKYLDERAAXDFVXWLLDT (as printed in Table 1: HsQGTFTSDK(γEγEC16)SKYLDERAA*S5HDFV*S5HWLLDT-NH2 (Table 2 prints HSQ...); s = D-Serine (position 2); Lys 10 conjugated to C16 fatty acid via γEγE; two *S5H = (S)-2-aminohept-6-enoic acid (positions 20 and 24) cyclized to form a double bond containing ring; C-terminal amide) [peptide of SEQ ID NO: 15 (TP506)]	GLP1R EC50 human (cAMP activity assay)	1.5 nM
H[Aib]QGTFTSDK([γGlu-γGlu-Palmitoyl])SKYLD[Aib]RAAQDFV[Gly(pent-4-enyl)]WLL[Gly(pent-4-enyl)]TK-NH2 (staple 24-28; not fully specified (residue 30); printed as HUQGTFTSDK(γEγEC16)SKYLDURAAQDFV*S5HWLL*S5HTKγE-NH2; also: Lys 30 conjugated by a gamma-glutamic acid (KγE)) [peptide of SEQ ID NO: 16 (TP551)]	GLP1R EC50 human (cAMP activity assay)	0.18 nM
H[Aib]QGTFTSDK([γGlu-γGlu-Palmitoyl])SKYLD[Aib]RAAQ[R6me]FVQWLM[S7]TK-NH2 (staple 21-28; not fully specified (residue 30); printed as HUQGTFTSDK(γEγEC16)SKYLDURAAQ*R6meFVQWLM*S7meTKγE-NH2; also: Lys 30 conjugated by a gamma-glutamic acid (KγE)) [peptide of SEQ ID NO: 13 (TP401)]	GLP1R EC50 human (cAMP activity assay)	0.26 nM
H[dS]QGTFTSDKS[R6me]YLDERA[S7]QDFVQWLLDT-NH2 (staple 12-19) [peptide of SEQ ID NO: 6 (TP397)]	GLP1R EC50 human (cAMP activity assay)	5.3 nM
HXQGTFTSDKSKYLDERAAXDFVXWLLDT (as printed: HsQGTFTSDKSKYLDERAA*S5HDFV*S5HWLLDT-NH2; s = D-Serine (position 2); two *S5H (positions 20 and 24) cyclized to form a double bond containing ring; C-terminal amide) [peptide of SEQ ID NO: 17 (TP 556)]	GLP1R EC50 human (cAMP activity assay)	2.38 nM

Which GLP1R EC50 human (cAMP activity assay) reading was recorded for the binder HXQGTFTSDXSXYLDERAXQDFVQWLLDT (as printed: HsQGTFTSDK(γEγEC16)S*R6meYLDERA*S7meQDFVQWLLDT-NH2; s = D-Serine (position 2); Lys 10 conjugated to C16 fatty acid (-CO-(CH2)14-CH3) via γ-glutamic acid-γ-glutamic acid; *R6me (position 12) and *S7me (position 19) cyclized to form a double bond containing ring; C-terminal amide) [peptide of SEQ ID NO: 7 (TP397)] ?
0.77 nM

Queued: H[dS]QGTFTSDKSKYLDE[R6me]AAQDFV[S7]WLLDT-NH2 (staple 17-24) [peptide of SEQ ID NO: 9 (TP398)]
5 nM

# iterate: H[Aib]QGTFTSDK([γGlu-γGlu-Palmitoyl])SKYLD[Aib]RAAQDFV[S5]WLM[S5]TK-NH2 (staple 24-28; not fully specified (residue 30); printed as HUQGTFTSDK(γEγEC16)SKYLDURAAQDFV*S5meWLM*S5meTKγE-NH2; also: Lys 30 conjugated by a gamma-glutamic acid (KγE)) [peptide of SEQ ID NO: 14 (TP402)]
0.13 nM

Same question, H[Aib]QGTFTSDKSKYLD[Aib]RAAQDFV[Gly(pent-4-enyl)]WLL[Gly(pent-4-enyl)]TK-NH2 (staple 24-28; not fully specified (residue 30); printed as HUQGTFTSDKSKYLDURAAQDFV*S5HWLL*S5HTKγE-NH2; also: Lys 30 conjugated by a gamma-glutamic acid (KγE)) [peptide of SEQ ID NO: 18 (TP 557)] this time
0.13 nM

And then H[dS]QGTFTSDKSKYLDERAA[R6me]DFVQWL[S7]DT-NH2 (staple 20-27) [peptide of SEQ ID NO: 11 (TP 399)] , what is it?
2.74 nM
